test: E. coli DRC41 culture turbidity changes, primary screen, E. coli filamentation inducer project, strain DRC41, OD650, 48 h (AID 1152);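 further: E. coli MC1000 strain DRC41 lacking acrAB efflux pump and sulA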; details: E. coli DRC41 (acrAB sulA), higher = more signal, called active from +8 up or from −8 down
Rule: z-score under 0.8 gives f, otherwise t.

Sample answers from the record:
| compound | assignedCategory |
| --- | --- |
| O=C1C2C=CC(C(O)c3cc(C(F)(F)F)cc(C(F)(F)F)c3)N(Nc3ccccc3F)C2C(=O)N1c1ccccc1 (stereo not given) | f |
| CCCNC(=O)[C@@]1(Sc2ccc(C)cc2)CC(=O)N(C2CCCCC2)[C@@H]1c1ccc(CO)cc1I | f |

Req: Quick check: does COc1cc2c(cc1OC)CN(C(=O)[C@@H]1[C@H]3C(=O)O[C@H](c4ccccc4)[C@H](c4ccccc4)N3[C@H](c3ccc(O)cc3)[C@@]13C(=O)Nc1ccc(C#CCCO)cc13)CC2 have z-score greater than or equal to 0.8?
Resp: f

Req: Okay, and CN1C(=O)[C@@]2(Cc3ccccc3)N=C(c3ccc(OCCCO)cc3)O[C@H]2c2ccccc21 ?
Resp: f

Req: Okay, and COC(=O)C1=CC(CCCO)=CC(C)N(Cc2cccc(OC(F)(F)F)c2)C=C1C(=O)OC (stereo not given) ?
Resp: f

Req: Then this compound: CO[C@H]1O[C@H](CO)[C@@H](OC(=O)CCc2ccccc2)[C@H](OC(=O)c2cc3ccccc3[nH]2)[C@H]1OC(=O)c1cc2ccccc2[nH]1
Resp: t

Req: Ok, now COCCCNC(=O)[C@@]1(c2ccc([N+](=O)[O-])cc2)CC(=O)N(CC23CC4CC(CC(C4)C2)C3)[C@@H]1c1ccc(CO)cc1I
Resp: f

Req: Field entry: Cc1ccc(C(C)CC(O)C2C=CC3C(=O)N(c4ccccc4)C(=O)C3N2Nc2ccc(C#N)cc2)o1 (stereo not given)
Resp: f

Req: Moving on to C=CC1c2cc(O)c(OC)cc2CCN1Cc1ccc([N+](=O)[O-])o1 (stereo not given)
Resp: t

Req: # repeat for O=C1C[C@@](C(=O)NCC(F)(F)F)(c2ccc([N+](=O)[O-])cc2)[C@@H](c2ccc(CO)cc2)N1CC12CC3CC(CC(C3)C1)C2
Resp: f

Req: How about Cc1c(NC(=O)/C(C#N)=C/c2ccccc2Cl)c(=O)n(-c2ccccc2)n1C ?
Resp: t

Req: Now the compound COc1ccc(C(=O)Nc2cccc(CN3C(=O)[C@@]4(O[C@@H](CC(=O)N(CCO)Cc5ccccc5)[C@H]([Si](C)(C)c5ccc(OC)cc5)[C@H]4C)c4ccccc43)c2)cc1
Resp: t

Req: How about CCOC(=O)C[C@H]1[C@H](OC(=O)c2ccc(C(=O)c3ccccc3)cc2)[C@@H](NC(=O)CC(C)C)c2cc(OCCCO)ccc2N1C(=O)Cc1ccc(OC)cc1 ?
Resp: f

Req: CC(CO)N1C(=O)[C@@H]2[C@H]3C(=O)OCC=C[C@H]3OC23C=CCN(c2ccc(Cl)cc2)C(=O)[C@@H]13 (stereo not given in full) ?
Resp: f
